Below is a list of entries, each paired with its recorded pKd value.
Target: T1, GFP-9S library array, motif 4 ND N98K;D124P (synthetic construct, N98K;D124P)
T1 chain: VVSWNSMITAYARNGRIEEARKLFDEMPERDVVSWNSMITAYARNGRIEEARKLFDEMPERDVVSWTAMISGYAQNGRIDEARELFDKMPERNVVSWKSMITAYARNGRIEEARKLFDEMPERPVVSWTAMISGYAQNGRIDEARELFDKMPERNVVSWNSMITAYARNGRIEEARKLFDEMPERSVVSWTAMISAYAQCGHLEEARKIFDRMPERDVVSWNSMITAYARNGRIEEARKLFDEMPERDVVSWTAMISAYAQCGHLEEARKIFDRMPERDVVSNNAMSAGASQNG
Test: high-throughput RNA pulldown from lysate on Ni-NTA beads; HRP: 50 mM Tris pH 8, 150 mM NaCl, 1 mM beta-mercaptoethanol, 50 ug/ml BSA, 3 ug/ml yeast RNA, 0.5% heparin; ITC and FP: Tris pH 8, 200 mM KCl, 5% glycerol; MST: 50 mM Tris pH 8, 200 mM NaCl, 1 mM DTT, BSA, heparin, 0.05% Tween 20
Settings: tags: N-terminal His-eGFP; label: 5' Cy5
pKd: −log10 of the molar value.
Reported Property: pKd

binder="AUUACACGUGA (ssRNA) [Cy5-rpoA]" number=6.97
binder="AUUAGACGUGA (ssRNA) [Cy5-rpoA-G]" number=6.98
